# study_target: human LSD1 (Homo sapiens (Human), UniProt O60341)
# experiment_summary: Experiment 1B: in vitro LSD1 enzyme activity, enzyme-coupled fluorescence (HRP/Amplex Red), H3(1-21)K4me2 peptide 10 μM (Reaction Biology)
# Type: biochemical
# measurement_conditions: histone H3(1-21)K4me2 peptide 10 μM
Structures can show the parent of a compound that is named as a salt.
IC50 under 30 nM gets met, anything at or over 30 nM gets not met.

Worked set:
[[record]]
compound = "CC(C)S(=O)(=O)c1ccc(-c2sc(C(=O)N3CCC[C@@H](N)C3)cc2-c2ccc(C#N)c(F)c2)cc1 [Hydrochloride of compound 47]"
discrete_label = "not met"

[[record]]
compound = "N#Cc1ccc(-c2cc(C(=O)N3CCC[C@@H](N)C3)sc2-c2ccc3c(c2)OCO3)cc1F [Hydrochloride of compound 37]"
discrete_label = "met"

[[record]]
compound = "COc1ccc(-c2sc(C(=O)N3CCC[C@@H](N)C3)cc2-c2ccc(C#N)c(F)c2)c(F)c1 [Hydrochloride of compound 21]"
discrete_label = "met"

[[record]]
compound = "CC1(O)CN(c2ccc(-c3sc(C(=O)N4CCC[C@@H](N)C4)cc3-c3ccc(C#N)c(F)c3)cc2)C1 [Hydrochloride of compound 118]"
discrete_label = "met"

[[record]]
compound = "N#Cc1ccc(-c2cc(C(=O)N3CCC[C@@H](N)C3)sc2-c2cc3nnn([C@H]4COCC[C@@H]4O)c3c(F)c2F)cc1F [Hydrochloride of compound 97]"
discrete_label = "met"


[ask] Just wondering, is IC50 of N#Cc1ccc(-c2cc(C(=O)N3CCC[C@@H](N)C3)sc2-c2ccn3cncc3c2)cc1F below 30 nM?
[reply] not met

[ask] # check: IC50 < 30 nM for CC(C)(O)CN1Cc2cc(-c3sc(C(=O)N4CCC[C@@H](N)C4)cc3-c3ccc(C#N)c(F)c3)ccc2C1=O
[reply] not met

[ask] Quick check: does CC(C)(O)CNc1ccc(-c2sc(C(=O)N3CCC[C@@H](N)C3)cc2-c2ccc(C#N)c(F)c2)cc1F [Hydrochloride of compound 119] have IC50 under 30 nM?
[reply] met

[ask] Is it true that IC50 reported for N#Cc1ccc(-c2cc(C(=O)N3CCC[C@@H](N)C3)sc2-c2cc3nnn(CC4(O)CCC4)c3c(F)c2F)cc1F [Hydrochloride of compound 92] is less than 30 nM?
[reply] met

[ask] Quick check: does N#Cc1ccc(-c2cc(C(=O)N3CCC[C@@H](N)C3)sc2-c2ccn3ccnc3c2)cc1F have IC50 under 30 nM?
[reply] met

[ask] Lab log: compare recorded IC50 with 30 nM; is it strictly lower for N#Cc1ccc(-c2cc(C(=O)N3CCC[C@@H](N)C3)sc2-c2ccc3nccn3c2)cc1F ?
[reply] not met

[ask] Is the reported IC50 for N#Cc1ccc(-c2cc(C(=O)N3CCC[C@@H](N)C3)sc2-c2ccc(N3CC[C@@H](O)C3)cc2)cc1F [Hydrochloride of compound 110] strictly below 30 nM?
[reply] met

[ask] Please indicate whether the reported IC50 of CC(C)(O)Cn1nnc2cc(-c3sc(C(=O)N4CCC[C@@H](N)C4)cc3-c3ccc(C#N)c(F)c3)c(F)c(F)c21 [Hydrochloride of compound 91] is strictly below 30 nM.
[reply] met

###

# study_target: human LSD1 (Homo sapiens (Human))
# experiment_summary: Experiment 1B: in vitro LSD1 enzyme activity, enzyme-coupled fluorescence (HRP/Amplex Red), H3(1-21)K4me2 peptide 10 μM (Reaction Biology)
# Format: biochemical
# measurement_conditions: histone H3(1-21)K4me2 peptide 10 μM
Where a name gives a salt, the structure may show the parent alone.
Mark satisfied only for IC50 values smaller than 10 nM; exact matches and larger values are not satisfied.

[[record]]
compound = "Cn1cc2cc(-c3sc(C(=O)N4CCC[C@@H](N)C4)cc3-c3ccc(C#N)c(F)c3)cnc2n1 [Hydrochloride of compound 56]"
discrete_label = "not satisfied"


In the following, a different compound is considered.
[ask] Say whether its IC50 is strictly beneath 10 nM. Entry: N#Cc1ccc(-c2cc(C(=O)N3CCC[C@@H](N)C3)sc2-c2ccc(N3CC[C@@H](O)C3)c(F)c2)cc1F [Hydrochloride of compound 101]
[reply] not satisfied
